# System: Plasmodium falciparum
# protocol_details: GSK_TCMDC: Inhibition of Plasmodium falciparum 3D7 in whole erythrocytes, using parasite LDH activity as an index of growth.
# Type: functional, organism-based
# stated_conditions: Plasmodium falciparum, 3D7
Label true (1) when XC50 < 600 nM; otherwise false (0).

Q. # TODO verify XC50 < 600 nM strictly for this compound: CCOc1cc(Br)c(C(C)NC(=O)c2cccc(OC)c2)cc1OCC (configuration not stated)
A. true (1)

Q. # TODO verify XC50 < 600 nM strictly for this compound: COC(=O)c1cccc(OCCNC2CCN(C[C@H](O)c3ccnc4ccc(OC)cc34)CC2)c1
A. true (1)

Q. # TODO verify XC50 < 600 nM strictly for this compound: Brc1ccc(C=NNc2nc3ccccc3[nH]2)cc1
A. false (0)

Q. # TODO verify XC50 < 600 nM strictly for this compound: C=C1C[C@@H](n2cnc3c(NC(=O)c4ccccc4)ncnc32)[C@@H](F)[C@@H]1OC(c1ccccc1)(c1ccccc1)c1ccccc1
A. true (1)

Q. # TODO verify XC50 < 600 nM strictly for this compound: Cc1cc(Br)cnc1CCCCNc1cc(=O)c2ccccc2[nH]1
A. false (0)

Q. # TODO verify XC50 < 600 nM strictly for this compound: Cc1ccc2[nH]c(C)cc(=NN=Cc3cccc(F)c3)c2c1
A. false (0)

Q. # TODO verify XC50 < 600 nM strictly for this compound: CC(C)(C)c1cc(C(=O)Nc2ccc(C(=N)N)cc2)c(O)c(C(C)(C)C)c1
A. false (0)

Q. # TODO verify XC50 < 600 nM strictly for this compound: CC(C)C[C@@H](/C=N/N1CCOC1=O)NC(=O)[C@H](CC(C)C)NC(=O)c1ccc(F)cc1
A. false (0)

Q. # TODO verify XC50 < 600 nM strictly for this compound: COc1cc(CNC[C@@H](O)[C@H](Cc2ccccc2)NC(=O)c2cc(OC(C)C)cc(N3CCCS3(=O)=O)c2)cc(OC)c1
A. false (0)

Q. # TODO verify XC50 < 600 nM strictly for this compound: CC1(C)NC(N)=NC(=N)N1OCCc1cccc2ccccc12
A. true (1)

Q. # TODO verify XC50 < 600 nM strictly for this compound: CCN(C(=O)NC)C1c2cc(C#N)ccc2OC(C)(C)C1O (configuration not stated)
A. true (1)

Q. # TODO verify XC50 < 600 nM strictly for this compound: O=C(/C=C/c1ccc(O)cc1)NC1CCC(CN2CCC(c3c[nH]c4ccccc34)CC2)CC1 (configuration not stated)
A. false (0)

Q. # TODO verify XC50 < 600 nM strictly for this compound: CCc1ccc(CN(CCCOc2cccc(CC(=O)NCc3c[nH]cn3)c2)Cc2ccc(-n3ccnc3)cc2)cc1
A. false (0)

Q. # TODO verify XC50 < 600 nM strictly for this compound: Cc1cc2c(NC(=O)NC3CCN(CCc4cccc(Cl)c4)CC3)cccc2cn1
A. true (1)

Q. # TODO verify XC50 < 600 nM strictly for this compound: Cn1ncc2ccc(Nc3nccc(-c4ccc5c(c4)c(N)nn5C)n3)cc21
A. false (0)

Q. # TODO verify XC50 < 600 nM strictly for this compound: CC(=O)Nc1ccc(CN2CCC(NC(=O)c3ccc(-c4cccc(OC(C)C)c4)s3)CC2)cc1
A. false (0)

Q. # TODO verify XC50 < 600 nM strictly for this compound: CC(Cc1ccc(S(=O)(=O)N(C(C)C)C(C)C)cc1)NCC(O)c1cccc(C(F)(F)F)c1 (configuration not stated)
A. false (0)

Q. # TODO verify XC50 < 600 nM strictly for this compound: Cc1[nH]c2c(NCc3ccc(F)cc3)nccc2c1C
A. false (0)

Q. # TODO verify XC50 < 600 nM strictly for this compound: COc1cc(Cc2cnc(N)nc2N)cc(OCCNC(=O)OCc2ccccc2)c1OC
A. false (0)

Q. # TODO verify XC50 < 600 nM strictly for this compound: COc1ccc2c(NN=Cc3ccccc3Cl)ccnc2c1
A. false (0)

Q. # TODO verify XC50 < 600 nM strictly for this compound: CCCCN(CCCC)CCNC(=O)c1cc(OC(F)(F)F)ccc1O
A. false (0)

Q. # TODO verify XC50 < 600 nM strictly for this compound: O=C(NC1CCCCC1)N(CCCn1ccnc1)Cc1csc(-c2ccc(CNCc3ccccc3)cc2)n1
A. false (0)

Q. # TODO verify XC50 < 600 nM strictly for this compound: Cc1cccc(CC2CC(=O)N(c3ccc([N+](=O)[O-])cc3)C2=O)c1 (configuration not stated)
A. true (1)

Q. # TODO verify XC50 < 600 nM strictly for this compound: Cc1cc(N[C@@H](Cc2ccccc2)C(=O)NC2CCCC2)nc(NCCCOC(C)C)n1
A. false (0)

Q. # TODO verify XC50 < 600 nM strictly for this compound: COc1ccccc1NC(=O)Nc1ccc(-c2cccc(-c3nc4ccccc4[nH]3)c2)cc1
A. false (0)

Q. # TODO verify XC50 < 600 nM strictly for this compound: COc1ccc(C(O)CNC(C)CCc2ccccc2)cc1C(F)(F)F (configuration not stated)
A. true (1)

Q. # TODO verify XC50 < 600 nM strictly for this compound: COc1ccc(Nc2ncc(Cl)c(Nc3cccnc3C(N)=O)n2)cc1N1CCN(C)CC1
A. true (1)

Q. # TODO verify XC50 < 600 nM strictly for this compound: CCn1c(-c2nonc2N)nc2c(-c3cccc(NC(=O)Nc4cccc(Cl)c4)c3)ncc(OCCCN)c21
A. false (0)

Q. # TODO verify XC50 < 600 nM strictly for this compound: COc1ccc2nc(Nc3nc(-c4ccccn4)cs3)sc2c1
A. false (0)

Q. # TODO verify XC50 < 600 nM strictly for this compound: NC1CCCN(Cc2ccc(-c3cccc(-c4nc5ccccc5[nH]4)c3)cc2)C1 (configuration not stated)
A. false (0)

Values were extracted from ChEMBL document CHEMBL1157539.
